# Lookup of reported GFP response vs DMSO keyed by entry
# methodNotes: hit retest on RPL19A-GFP reporter strain – cell-based, S. cerevisiae, flow cytometry, cherry picks, mother/daughter gates, confirmation (AID 2270)
# conditionNotes: 3 h, measured here: mother cell gate, at 10 µM, stronger effect = lower value, 100 = same GFP as DMSO wells
reportedMetric: GFP response vs DMSO (%)

compound | reportedMetric | measuredValue
O=C(/C=C/c1ccc(Cl)c([N+](=O)[O-])c1)c1cccnc1 | GFP response vs DMSO | 84.1
O=C(NCCN1CCN(c2ccccc2)CC1)c1cccc(Br)c1 | GFP response vs DMSO | 97.4
CS(=O)(=O)N1N=C(c2ccccc2)CC1c1ccc2c(c1)OCO2 (stereo unspecified) | GFP response vs DMSO | 135
Cn1c(=O)c(C(=O)NCCO)c(O)c2ccccc21 | GFP response vs DMSO | 103
CC(NCCc1ccc(O)cc1)C(O)c1ccc(O)cc1 (stereo unspecified) | GFP response vs DMSO | 94.1
O=C(C#Cc1cccc([N+](=O)[O-])c1)c1ccccc1 | GFP response vs DMSO | 88
OC(CCN1CCCCC1)(c1ccccc1)c1ccccc1 | GFP response vs DMSO | 102
CCN(CC)c1ccc2cc(-c3nc(-c4ccc(OC)cc4)cs3)c(=O)oc2c1 | GFP response vs DMSO | 106
O=C(NC1CCCCC1)N1CCc2[nH]c3ccccc3c2C1 | GFP response vs DMSO | 98.5
Cc1cc(C)c(C(=O)Cn2cnc3cc([N+](=O)[O-])ccc3c2=O)cc1C | GFP response vs DMSO | 99.8
CC(=O)O[C@]1(C(C)=O)CC[C@H]2[C@@H]3C[C@H](C)C4=CC(=O)CC[C@]4(C)[C@H]3CC[C@@]21C | GFP response vs DMSO | 97.2

###

Below is a list of entries, each paired with its recorded response (% of control binding) value.
# systemName: Regulator of G-protein signaling 16 (Homo sapiens) + Guanine nucleotide-binding protein G(o) subunit alpha (Homo sapiens) (UniProt O15492+P09471)
# Sequence (O15492 whole entry, looked up): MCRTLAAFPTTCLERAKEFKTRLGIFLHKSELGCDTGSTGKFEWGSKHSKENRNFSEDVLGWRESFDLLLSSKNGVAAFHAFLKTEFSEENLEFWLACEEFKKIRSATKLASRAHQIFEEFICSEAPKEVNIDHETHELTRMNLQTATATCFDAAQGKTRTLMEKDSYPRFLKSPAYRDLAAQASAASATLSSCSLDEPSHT
# Sequence (P09471 whole entry, looked up): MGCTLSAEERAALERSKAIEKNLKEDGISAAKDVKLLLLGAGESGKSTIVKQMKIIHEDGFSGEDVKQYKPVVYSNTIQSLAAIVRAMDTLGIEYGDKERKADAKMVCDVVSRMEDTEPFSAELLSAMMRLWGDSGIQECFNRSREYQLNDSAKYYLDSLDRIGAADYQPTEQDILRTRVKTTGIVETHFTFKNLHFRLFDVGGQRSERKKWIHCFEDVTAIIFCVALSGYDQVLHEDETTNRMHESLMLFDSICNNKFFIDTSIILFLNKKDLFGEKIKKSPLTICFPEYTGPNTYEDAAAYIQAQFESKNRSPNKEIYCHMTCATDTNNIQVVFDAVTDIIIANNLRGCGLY
# methodNotes: RGS16 and Galphao interaction regulators – biochemical, single concentration, multiplexed bead flow cytometry, confirmation (AID 1838);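 note: Galphao activated as the GDP aluminium fluoride complex binding bead-coupled RGS16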
# conditionNotes: bead-based flow cytometry, at 10 µM, actives lie on both sides
Some of the results follow.
reportedMetric: response (% of control binding) (%)

compound | measuredValue
CCN(CC)CCn1cnc2c1c(=O)n(CCOC(=O)c1cc(OC)c(OC)c(OC)c1)c(=O)n2C | 104
CCN(CC)S(=O)(=O)c1cccc(-c2n[nH]c(=S)n2/N=C/c2ccc(C(=O)OC)cc2)c1 | 74
CC1(C)C=C2[C@H]3CC[C@@H]4[C@@]5(C)CCC(=O)C(C)(C)[C@@H]5CC[C@@]4(C)[C@]3(C)CC[C@@]2(C(=O)O)CC1 | 107
Cc1cc(C)cc(N(CC(=O)Nc2c(C)n(C)n(-c3ccccc3)c2=O)S(C)(=O)=O)c1 | 108
Cc1ccc(S(=O)(=O)NCC(=O)OCC(=O)N2CCc3ccccc32)cc1 | 98.9
CCOC(=O)CSc1nc2c(c(=O)n(Cc3ccccc3Cl)c(=O)n2C)n1C | 99.1
Cc1ccccc1NC(=S)N(CCCN1CCOCC1)Cc1cccs1 | 104
C=CCn1c(=NC(=O)c2cccs2)sc2cc(NC(C)=O)ccc21 | 103
CC(=O)Nc1nc(N(C)C)nc(N(C)C)n1 | 104
COc1ccccc1CCNC(=O)CSc1nnc2ccc(-c3cccnc3)nn12 | 101
O=C(Nc1ccccc1)OCc1cc(-c2ccc(Cl)cc2)on1 | 107
CC(NC(=O)COC(=O)C1CCN(S(=O)(=O)c2ccccc2C(F)(F)F)CC1)c1ccccc1 (centres undefined) | 99.8
CCC(=O)Nc1c(S(=O)(=O)c2ccccc2)c2nc3ccccc3nc2n1Cc1ccccc1 | 104
C/C(=C/C(=O)N1CCN(C)CC1)C(=O)O | 105
CCOC(=O)C1=C(c2ccccc2)N=C2SCC(=O)N2C1c1ccc(O)c(OC)c1 (centres undefined) | 110
Cc1cc(=O)n2[nH]c(-c3sccc3-n3c(C)ccc3C)cc2n1 | 95.8
COc1ccc(C(=O)NNc2cc(C)nc(NNC(=O)c3ccc(OC)cc3)n2)cc1 | 111
Cc1cccc(S(=O)(=O)CC(=O)Nc2nc(-c3ccccc3)cs2)c1 | 98.5
Nc1ccc(C(=O)OCC(=O)NC2CCS(=O)(=O)C2)cc1[N+](=O)[O-] (centres undefined) | 99.9
Cc1cc2nc(C)n(CCCNC(=O)Nc3ccccc3)c2cc1C | 103
CCOc1ccc(NC(=O)CSc2nc3ccccc3c(=O)n2Cc2cccs2)cc1 | 104
CCC(=O)N1CCC(C(N)=O)(N2CCCCC2)CC1 | 94.8
O=C(Nc1ccc(-n2ccnc2P(=O)(O)c2ccccc2)cc1)c1ccccc1Br | 118
COc1ccc(C(=O)COC(=O)c2ccc3ccccc3n2)cc1 | 95.4

###

Each item that follows carries a reported percent of DMSO control GFP.
# methodNotes: rapamycin-like changes in RPL19A-GFP expression – cell-based, S. cerevisiae, multiplex flow cytometry, primary screen (AID 1862);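 note: lower values mimic rapamycin by blocking the RPL19A rise seen in DMSO cells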
# conditionNotes: S. cerevisiae RPL19A-GFP strain, flow cytometry fluorescence, 3 h; at 10 µM; stronger effect = lower value
Records with an inconclusive call do not appear.

molecule | percent of DMSO control GFP / %
COc1cc2c(cc1OC)C(=S)NC(C)(C)C2 | 102
O=C(CN1C(=O)C2CCc3[nH]c4ccccc4c3C2C1=O)N1CCCC1 (stereo not drawn) | 89.1
COc1ccc(CCN2C(=O)CSC2c2ccc(OC)c(OC)c2)cc1OC (stereo not drawn) | 102
Cc1c(Cc2ccccc2)c(=O)oc2c(CN(C)C)c(O)c(Cl)cc12 | 98.2
Cn1c(=O)[nH]c2nnc(-c3ccc(Cl)c(Cl)c3)nc2c1=O | 103
Cc1ccc(C(=O)Nc2ccccc2C(=O)NC(C(=O)O)C(C)C)cc1 (stereo not drawn) | 96.7
CC(=O)N/C(=C/c1ccc2c(c1)OCO2)C(=O)NCCO | 98.2
COc1cc(C(=O)NCCCCCC(=O)O)cc(OC)c1OC | 104
NC[C@H]1O[C@H](O[C@H]2[C@H](O)[C@@H](O[C@H]3O[C@H](CO)[C@@H](O)[C@H](N)[C@H]3O)[C@H](N)C[C@@H]2N)[C@H](N)C[C@@H]1O | 101
CC1(C)C(C=C(Cl)Cl)C1C(=O)N1CCN(Cc2ccccc2)CC1 (stereo not drawn) | 103
C=CC1=C(C(=O)O)N2C(=O)C(NC(=O)Cc3ccccc3)C2SC1 (stereo not drawn) | 101
CCOc1ccc2ccccc2c1C(=O)N[C@@H]1C(=O)N2[C@@H]1SC(C)(C)[C@@H]2C(=O)O | 101
Cc1cc(C(=O)Nc2ccccc2C(=O)N2CCCCC2)ccc1[N+](=O)[O-] | 98.4
CC(=O)CCCCn1c(=O)c2c(ncn2C)n(C)c1=O | 103
COCCCN1C(=O)C(=O)/C(=C(/O)c2ccc3c(c2)CC(C)O3)C1c1cccnc1 (stereo not drawn) | 101
O=C(N1CCCCC1)C1(c2ccccc2)CCOCC1 | 99.3
O=C(O)c1ccccc1OCCOc1ccccc1 | 93.4
Cc1ccc([N+](=O)[O-])cc1NC1OC(CO)C(O)C1O (stereo not drawn) | 102
CN(CCO)CC(O)Cn1cnc2c1c(=O)n(C)c(=O)n2C (stereo not drawn) (tested in a mixture with another compound) | 101
CC(C)CC(=O)Nc1ccc2oc(-c3ccncc3)nc2c1 | 92.2
CCc1ccc(CN(C)Cc2nc(Cc3ccccc3)no2)nc1 | 105
CC(C)=CC/C=C1\CCC(C(=O)O)C(C(=O)O)C1 (stereo not drawn) | 89.5
CC1(C)CC(NC(=O)C23CCC(C)(C(=O)C2=O)C3(C)C)CC(C)(C)N1 (stereo not drawn) | 99
Cc1cc(-c2nn(-c3ccccc3F)cc2CN2CCCC(O)C2)c(C)s1 (stereo not drawn) | 97.6
CCCCOc1cc(C(=O)NCCN(CC)CC)c2ccccc2n1 | 94.8
O=C(O)c1ccccc1C(=O)OCCCCOC(=O)c1ccccc1C(=O)O | 104
COc1cccc(NC(=O)C2CC(=O)OC23CCOC(C)(C)C3)c1 (stereo not drawn) | 93.7
c1ccc(Nc2ccccn2)nc1 | 98.6
CO[C@@]1(NC(=O)Cc2cccs2)C(=O)N2C(C(=O)O)=C(COC(N)=O)CS[C@@H]21 | 91.5
CC(C)C1CC(CCNCc2ccc(N(C)C)cc2)(c2ccccc2)CCO1 (stereo not drawn) | 95.2
CC(=O)C1=C(O)C(=O)N(Cc2cccnc2)C1c1ccc(C(C)C)cc1 (stereo not drawn) | 97.5
CC(C)CN1CCN(Cc2cccn2-c2ccccn2)CC1CCO (stereo not drawn) | 90.9
Cc1ccc(/C=N/Nc2nc(C(C)(C)C)cs2)o1 | 103
Cn1c(=O)c2[nH]cnc2n(C)c1=O | 90.9
NC(N)=N/N=C/c1cccc(Cl)c1Cl | 104
C[C@]12CCC(=O)C=C1CC[C@@H]1[C@@H]2[C@@H](O)C[C@@]2(C)[C@H]1CC[C@]2(O)C(=O)CO | 108
Cc1coc2cc3oc(=O)c(CCC(=O)O)c(C)c3cc12 | 95.4
O=C(Nc1ccc(F)c([N+](=O)[O-])c1)c1ccc2c(c1)OCCO2 | 106
CCCCOc1ccc(CC(=O)NO)cc1 | 87.8
O=C(Nc1ncc2c(n1)CC(c1ccco1)CC2=O)c1ccco1 (stereo not drawn) | 93.9
C[C@]12CCC(=O)C=C1CC[C@@H]1[C@@H]2[C@@H](O)C[C@@]2(C)[C@H]1CC[C@]2(O)C(=O)COC(=O)CCC(=O)O | 104
CC(=O)OCC(=O)[C@@]1(O)CC[C@H]2[C@@H]3CCC4=CC(=O)CC[C@]4(C)[C@H]3[C@@H](O)C[C@@]21C | 101
CC(=O)c1cc2c(cc1NC(=O)c1ccco1)OCCO2 | 103
